Test system: irradiated G361 cells
Assay: Photodynamic treatment (LED 414 nm) with MTT cell viability assay
Type: cell-based
Settings: Homo sapiens, G-361, light or radiation study, G361, 414 nm, total irradiation dose 50 J/cm^2
Observation Type: pEC50
Scale for pEC50: -log10 of concentration given in mol/L; no unit attached.

So for CCCCCCOc1nn(-c2ccccc2)cc1/C=C/c1ccc2c(c1)C(C)(C)C(c1ccccc1)=N2 , the logged pEC50 turned out to be 7.28
